target: T1, human Dectin-1 (biosensor tests of Tables 3, 4A and 9; construct not stated) (human, UniProt Q9BXN2 66-247, limits assumed)
T1 construct: also called hDectin-1
T1 sequence (looked up): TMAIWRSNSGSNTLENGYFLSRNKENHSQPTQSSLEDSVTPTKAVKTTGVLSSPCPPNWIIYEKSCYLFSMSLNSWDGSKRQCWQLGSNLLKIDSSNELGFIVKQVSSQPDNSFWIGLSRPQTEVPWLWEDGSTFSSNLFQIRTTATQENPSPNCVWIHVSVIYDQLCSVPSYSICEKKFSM
assay.info: Octet response; also: time not given here
So I've got a bunch of binders here, and I need their X = 470 values.
Please reply with the value in numeric form only.

Exercise: Could you share which X = 470 value was measured for 2M24A.1.8 hFab (Fab, V domains shown, Fab; also called 2M24.1.8) VH: QVQLVQSGAEVKKPGASVKVSCKSSGYTFTDYYIHWVRQAPGQGLEWMGWINPNSGDTNYAQKFQGRITMTRDTSISTAYLELSRLRSDDTAVFYCARASGSYSFGYWGQGTLVTVSS VL: DIQMTQSPSSVSASVGDRVTITCRASQGISSWLAWYQQKPGKAPKLLIFGASSLQSGVPSRFSGSGSGTDFTLTVSSLQPEDFATYYCQQAFSFPFTFGPGTKVDIE ?
Key: 0

Exercise: Could you share which X = 470 value was measured for 2M24A.1.12 hFab (Fab, V domains shown, Fab; also called 2M24.1.12) VH: QVQLVQSGAEVKKPGASVKVSCKSSGYTFTDYYIHWVRQAPGQGLEWMGWINPNSGATNYAQKFQGRITMTRDTSISTAYLELSRLRSDDTAVFYCARNSGSYSFGYWGQGTLVTVSS VL: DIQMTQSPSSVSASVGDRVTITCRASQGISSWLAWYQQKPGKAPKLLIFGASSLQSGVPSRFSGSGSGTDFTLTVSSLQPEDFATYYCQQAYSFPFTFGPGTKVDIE ?
Key: 0.399

Exercise: Could you share which X = 470 value was measured for 2M24A.1.10 hFab (Fab, V domains shown, Fab; also called 2M24.1.10) VH: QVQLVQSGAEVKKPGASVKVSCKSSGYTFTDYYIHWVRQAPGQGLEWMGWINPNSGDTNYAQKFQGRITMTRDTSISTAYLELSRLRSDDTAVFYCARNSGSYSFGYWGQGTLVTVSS VL: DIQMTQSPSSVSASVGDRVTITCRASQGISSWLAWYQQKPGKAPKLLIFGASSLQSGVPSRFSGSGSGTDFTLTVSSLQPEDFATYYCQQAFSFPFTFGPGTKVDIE ?
Key: 0.402
